Hello, the source for this data is patent US20220356228A1, in case you need it.

Readings of AB conc. (lowest concentration of antibody that gave a clear signal above background) for the listed binders
# assayedSystem: T1, JCV VP1 mutant S269F (John Cunningham virus (JCV), UniProt P03089 1-354)
# T1 construct: also called VP1 S269F; 269m VP1
# protocolText: ELISA, plates coated with pseudovirus, purified antibody
measure: AB conc. (lowest concentration of antibody that gave a clear signal above background)

binder | valueMeasured
1E12 (antibody, V domains shown) VH: QVQLVESGGGLVKPGGSLRLSCTASGFTFSDHYMSWIRQAPGKGLEWVSYISTGGRTIYYADSVKGRFTISRDNAKNSLYLQMNSLRAEDTAVYYCASDYYDNVGWDYWGQGTLVTVSS VL: DVVLTQSPLSLPVTLGQPASISCRSSQSLIYSDGNTYLNWFQQRPGQSPRRLIYKVSDRDSGVPDRFSGSGSGTDFTLKISRVEAEDVGVYYCMQGTHWPRTFGQGTKVEIK | < 7.4 ng/mL
2A11 (antibody, V domains shown) VH: QVQLVESGGGLVKPGGSLRLSCAASGFTFSDHYMSWIRQAPGKGLEWVSYISTSGRTIYYVDSVKGRFTISRDNAKNSLYLQMNSLRAEDMAVYYCASDYYDNVGWNYWGQGALVTVSS VL: DVVLTQSPLSLPVTLGQPASISCRSSQSLVYSDGNTYLNWFQQRPGQSPRRLIYKVSDRDFGVPDRFSGSGSGTDFTLKISRVEAEDVGIYYCMQGTHWPRTFGQGTKVEIK | < 2.5 ng/mL
1A3 (antibody, V domains shown) VH: QVQLVESGGGLVKPGGSLRLSCAASEITFSDYYMSWIRQAPGKGLEWISYISTSGRTIYFADSVKGRFTISRDNAKNSLYLQMNSLRADDTAVYYCASDFYDNSGWEYWGQGTLVTVSS VL: DVVMTQSPLSLSVTLGQPASISCRSSQSLVYSDGNTYLNWFQQRPGQSPRRLIYKVSDRDSGVPDRFSGSGSGTDFTLKISRAEAEDVGVYYCMQGTHWPRTFGQGTKVEIK | < 2.5 ng/mL
